Test: BIA 28-6156-106 mass balance recovery, metabolite profiling and PK of 14C-Compound A
Format: in vivo, human
Run Parameters: male, human, plasma; single oral dose of 60 mg 14C BIA-28; read-out: plasma half-life, geometric mean (converted)
Experimental: This was a Phase 1, single-dose, mass balance recovery study of ^14C-Compound A in 1 cohort of healthy male subjects, aged 30 to 65 years. A total of 6 subjects received a single oral dose of 60 mg Compound A, containing not more than 3.7 MBq ^14C, under fasted conditions. […]

[
  {
    "Molecule": "CCCCCO[C@H]1CC[C@H](NC(=O)c2cnn3c(C)cc(C)nc23)CC1",
    "half-life": "21.5 h"
  }
]

###

Test: LTI-291-001 single ascending dose study: plasma pharmacokinetics and food effect
Assay type: in vivo, human
Run Parameters: human, plasma, po, 3 mg, 3 mg fasted, single oral dose, geometric mean; read-out: t1/2 (converted)
Measure Name: half-life (h)

[
  {
    "Molecule": "CCCCCO[C@H]1CC[C@H](NC(=O)c2cnn3c(C)cc(C)nc23)CC1 [Compound A]",
    "Test Result": 21.2
  }
]

###

Test: LTI-291-002 multiple ascending dose study: plasma and CSF pharmacokinetics
Assay type: in vivo, human
Run Parameters: human, plasma, oral, 30 mg, 30 mg daily, dose 7, geometric mean
Measure Name: Cmax (ng/mL)

[
  {
    "Compound": "CCCCCO[C@H]1CC[C@H](NC(=O)c2cnn3c(C)cc(C)nc23)CC1 [Compound A]",
    "Test Result": 1600
  }
]

###

Test: LTI-291-001 single ascending dose study: plasma pharmacokinetics and food effect
Type: in vivo, human
Run Parameters: human, plasma, po, 10 mg, 10 mg fasted, single oral dose, geometric mean

[
  {
    "Compound": "CCCCCO[C@H]1CC[C@H](NC(=O)c2cnn3c(C)cc(C)nc23)CC1 [Compound A]",
    "AUC(0-t), ng·h/mL": 5690
  }
]

###

Test: LTI-291-002 multiple ascending dose study: plasma and CSF pharmacokinetics
Type: in vivo, human
Run Parameters: human, plasma, oral, 60 mg, 60 mg daily, dose 7, geometric mean; read-out: AUC0-last

[
  {
    "Molecule": "CCCCCO[C@H]1CC[C@H](NC(=O)c2cnn3c(C)cc(C)nc23)CC1",
    "Output Unit": "ng·h/mL",
    "AUC(0-t)": 50300
  }
]

###

Test: LTI-291-002 multiple ascending dose study: plasma and CSF pharmacokinetics
Assay type: in vivo, human
Run Parameters: human, plasma, oral, 30 mg, 30 mg daily, dose 1, geometric mean
Measure Name: Cmax (ng/mL)

[
  {
    "Compound": "CCCCCO[C@H]1CC[C@H](NC(=O)c2cnn3c(C)cc(C)nc23)CC1 [Compound A]",
    "Measure Name": "Cmax",
    "Test Result": 869
  }
]

###

Test: LTI-291-002 multiple ascending dose study: plasma and CSF pharmacokinetics
Type: in vivo, human
Run Parameters: human, plasma, oral, 10 mg, 10 mg daily, dose 14, geometric mean; read-out: AUC0-24
Measure Name: AUC(0-t) (ng·h/mL)

[
  {
    "Molecule": "CCCCCO[C@H]1CC[C@H](NC(=O)c2cnn3c(C)cc(C)nc23)CC1",
    "Measure Name": "AUC(0-t)",
    "Test Result": 7510
  }
]

###

Test: LTI-291-002 multiple ascending dose study: plasma and CSF pharmacokinetics
Assay type: in vivo, human
Run Parameters: human, plasma, oral, 60 mg, 60 mg daily, dose 14, geometric mean; read-out: AUC0-24

[
  {
    "Compound": "CCCCCO[C@H]1CC[C@H](NC(=O)c2cnn3c(C)cc(C)nc23)CC1 [Compound A]",
    "AUC(0-t)": "50900 ng·h/mL"
  }
]

###

Test: LTI-291-002 multiple ascending dose study: plasma and CSF pharmacokinetics
Type: in vivo, human
Run Parameters: human, plasma, oral, 60 mg, 60 mg daily, dose 1, geometric mean
Measure Name: AUC(0-inf) (ng·h/mL)

[
  {
    "Molecule": "CCCCCO[C@H]1CC[C@H](NC(=O)c2cnn3c(C)cc(C)nc23)CC1",
    "Test Result": 39300
  }
]

###

Test: LTI-291-003 multiple dose study in GBA-PD: plasma and CSF pharmacokinetics
Assay type: in vivo, human
Run Parameters: human, plasma, oral, 60 mg, 60 mg daily, dose 28, GBA-PD, geometric mean; read-out: AUC0-last
Measure Name: AUC(0-t) (ng·h/mL)

[
  {
    "Molecule": "CCCCCO[C@H]1CC[C@H](NC(=O)c2cnn3c(C)cc(C)nc23)CC1 [Compound A]",
    "Test Result": 14100
  }
]

###

Test: LTI-291-003 multiple dose study in GBA-PD: plasma and CSF pharmacokinetics
Type: in vivo, human
Run Parameters: human, plasma, oral, 10 mg, 10 mg daily, dose 1, GBA-PD, geometric mean; read-out: AUC0-6

[
  {
    "Molecule": "CCCCCO[C@H]1CC[C@H](NC(=O)c2cnn3c(C)cc(C)nc23)CC1",
    "AUC(0-t) / ng·h/mL": 1080
  }
]

###

Test: LTI-291-001 single ascending dose study: plasma pharmacokinetics and food effect
Format: in vivo, human
Run Parameters: human, plasma, po, 90 mg, 90 mg fasted, single oral dose, geometric mean; read-out: Vz/F
Measure Name: Vd/F

[
  {
    "Molecule": "CCCCCO[C@H]1CC[C@H](NC(=O)c2cnn3c(C)cc(C)nc23)CC1 [Compound A]",
    "Test Result": "47.7 L"
  }
]

###

Test: LTI-291-001 single ascending dose study: plasma pharmacokinetics and food effect
Format: in vivo, human
Run Parameters: human, plasma, po, 10 mg, 10 mg fed, single oral dose, median; read-out: Tmax
Procedure: This study was a first-in-human Phase 1, randomized, double-blind, placebo-controlled, single-ascending dose study to evaluate the safety and tolerability, PK, and PD of escalating single oral doses of Compound A (3, 10, 30, and 90 mg) in 4 cohorts of healthy subjects. […] The effect of food on the PK of Compound A was evaluated by administering a second single oral dose of 10 mg Compound A to the subjects in Cohort 2 on a separate occasion, after subjects had completed a high-fat breakfast. […]

[
  {
    "Molecule": "CCCCCO[C@H]1CC[C@H](NC(=O)c2cnn3c(C)cc(C)nc23)CC1 [Compound A]",
    "Tmax": "8 h"
  }
]

###

Test: LTI-291-002 multiple ascending dose study: plasma and CSF pharmacokinetics
Assay type: in vivo, human
Run Parameters: human, plasma, oral, 60 mg, 60 mg daily, dose 7, geometric mean
Measure Name: Cmax (ng/mL)

[
  {
    "Molecule": "CCCCCO[C@H]1CC[C@H](NC(=O)c2cnn3c(C)cc(C)nc23)CC1",
    "Measure Name": "Cmax",
    "Test Result": 3190
  }
]

###

Test: LTI-291-003 multiple dose study in GBA-PD: plasma and CSF pharmacokinetics
Assay type: in vivo, human
Run Parameters: human, CSF and plasma, oral; 10 mg, after the 28th daily dose; read-out: CSF-to-plasma concentration ratio, mean (SD)
Measure Name: Kp at 4 h

[
  {
    "Molecule": "CCCCCO[C@H]1CC[C@H](NC(=O)c2cnn3c(C)cc(C)nc23)CC1",
    "Test Result": 0.0113
  }
]

###

Test: BIA 28-6156-107 DDI: effect of single-dose Compound A on single-dose PK of carbidopa-levodopa
Run Parameters: both, human, in vivo, oral, Median Tmax, carbidopa; carbidopa-levodopa alone

[
  {
    "Molecule": "C[C@@](Cc1ccc(O)c(O)c1)(NN)C(=O)O",
    "Tmax": "2.5 h"
  }
]

###

Test: LTI-291-002 multiple ascending dose study: plasma and CSF pharmacokinetics
Type: in vivo, human
Run Parameters: human, plasma, oral, 10 mg, 10 mg daily, dose 14, geometric mean; read-out: t½ (converted)
Procedure: This study was a phase 1, randomized, double-blind, placebo-controlled, multiple ascending dose study of Compound A in 4 cohorts of middle-aged to elderly healthy participants (aged 52 to 75 years). […] Pharmacokinetic parameters were determined for each dose at Day 1, Day 7, and Day 14. Cerebrospinal fluid samples for Compound A concentrations were measured before the first dose and 4 hours after the last dose for each dose level. […]

[
  {
    "Compound": "CCCCCO[C@H]1CC[C@H](NC(=O)c2cnn3c(C)cc(C)nc23)CC1 [Compound A]",
    "Output Unit": "min",
    "half-life": 1930
  }
]

###

Test: LTI-291-001 single ascending dose study: plasma pharmacokinetics and food effect
Format: in vivo, human
Run Parameters: human, plasma, po, 10 mg, 10 mg fasted, single oral dose, geometric mean; read-out: t1/2 (converted)

[
  {
    "Molecule": "CCCCCO[C@H]1CC[C@H](NC(=O)c2cnn3c(C)cc(C)nc23)CC1",
    "Output Unit": "h",
    "half-life": 22.2
  }
]
